FYI, the data here is from PubChem BioAssay.

assay: small-molecule microarray binders of probe aDKK1, primary screen, biochemical, biotinylated probe, 635/667 nm fluorescence (AID 1099); details: higher = more signal;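 also: score merges 667nm spot fluorescence with signal to noise across triplicate slides; reference of the scale not given here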
Please respond with reported composite z-score for every item in the list.
Give bare numbers.

Given the entry `COC(=O)[C@@]1(Cc2ccc(F)cc2)[C@@H]2C(=CC(=O)[C@H]2CC(=O)C(=O)N2CCCC2)CN1C(=O)c1ccccc1` , report its measured composite z-score.
1.72

Please report composite z-score for every entry that follows.
1. C=CCNC(=O)[C@H]1[C@@H]2C(=O)O[C@@H](c3ccccc3)[C@@H](c3ccccc3)N2[C@@H](c2ccc(O)cc2)[C@]12C(=O)Nc1ccccc12
2. COCCCNC(=O)[C@@]1(Cc2ccccc2I)c2ccccc2C(=O)N(C2CCCCC2)[C@H]1c1ccc(CO)cc1
3. COCCOC(=O)N1C(=O)[C@@]2(c3cc(C#CCNC(N)=O)ccc31)[C@H](C(N)=O)[C@H]1C(=O)O[C@H](c3ccccc3)[C@H](c3ccccc3)N1[C@@H]2c1ccc(O)cc1

1: 0.46; 2: 0.015; 3: 0.554

Dear reader, for each entry below, please note its composite z-score.
1. COC(=O)[C@]1(Cc2ccccc2N=[N+]=[N-])N=C(c2ccc(OCCCO)cc2)O[C@@H]1c1ccccc1CN=[N+]=[N-]
2. CCCCC=C[C@@H](NC(=O)C(C)(C)C)c1ccccc1

[2.44, 0.715]

Given the compound `CO[C@H]1O[C@H](CO)[C@@H](OC(=O)Nc2cccc(F)c2)[C@H](OC(=O)Nc2ccc3c(c2)OCO3)[C@@H]1OC(=O)Nc1ccc2c(c1)OCO2` , what is its reported composite z-score?
0.359

* * *

assay: small-molecule binders of probe aNOTCH3, primary screen, biochemical, small-molecule microarray, 635/667 nm fluorescence (AID 1120); conditions: higher = more signal;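 also: probe is a biotin-tagged antibody raised against NOTCH3 rather than NOTCH3 protein; score merges spot fluorescence near 667 nm with spot signal to noise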
Cut-off 0.2 on composite z-score, inclusive. At or above means condition met; below means condition not met.

Example results:
Decide: is the reported value of composite z-score for `C=CCOC(=O)[C@H]1[C@@H]2C(=O)O[C@@H](c3ccccc3)[C@@H](c3ccccc3)N2[C@@H](c2ccc(OCCOC(=O)[C@H]3C[C@H]4C(=O)NCC(=O)N4[C@H]3c3ccc(O)cc3)cc2)[C@]12C(=O)Nc1ccccc12` equal to or greater than 0.2?
condition met

Is composite z-score for `CC(C)(C)OC(=O)CC[C@@]1(C(=O)N2CCOCC2)N=C(c2ccc(OCCCO)cc2)O[C@@H]1c1ccccc1CN=[N+]=[N-]` at or above 0.2?
condition not met

Given the entry `COCCOC(=O)N1C(=O)[C@@]2(c3cc(C#CCCO)ccc31)[C@H](c1ccc(O)cc1)N1[C@H](c3ccccc3)[C@H](c3ccccc3)OC(=O)[C@H]1[C@@H]2C(=O)NC[C@H](O)c1ccccc1` , answer whether its composite z-score meets or surpasses 0.2.
condition not met

Does the reported composite z-score for `O=C1O[C@@H](c2ccccc2)[C@@H](c2ccccc2)N2[C@@H](c3ccccc3OCCO)[C@]3(C(=O)Nc4ccc(C#CC5(O)CCCCCC5)cc43)[C@@H](C(=O)N3CCCCCCC3)[C@H]12` fall at or above the 0.2 mark?
condition met

Confirm if composite z-score reported for the compound CCCCN1CC=CC23O[C@@H]4/C=C\CCCOC(=O)C4[C@H]2C(=O)N(CCCCCCO)[C@@H]3C1=O (stereo partly drawn) is 0.2 or above.
condition not met

Given CCN1C(=O)C2CC(=O)C3C(CN(S(=O)(=O)c4ccc(C)cc4)C3c3ccc(C)cc3)C2C1=O (stereo not drawn) , state whether its composite z-score is at least 0.2.
condition not met

New cases:
Quick check, composite z-score >= 0.2? `CCOC(=O)C[C@H]1[C@H](OC(=O)c2cc3ccccc3oc2=O)[C@@H](NC(=O)c2ccc(-c3ccccc3)cc2)c2cc(OCCCO)ccc2N1C(=O)Cc1ccc(OC)cc1`
condition met

Has `C=CC[C@H](OC(=O)Nc1ccc(SC)cc1)c1ccc(O)c(F)c1` a recorded composite z-score greater than or equal to 0.2?
condition not met

Quick check, composite z-score >= 0.2? `COc1cccc(C)c1NC(=O)O[C@H]1[C@H](OC(=O)Nc2ccc3c(c2)OCO3)[C@H](OC(=O)Nc2ccc3c(c2)OCO3)[C@@H](OC)O[C@@H]1CO`
condition met

composite z-score >= 0.2 for `C=CCNC(=O)[C@H]1[C@@H]2C(=O)O[C@@H](c3ccccc3)[C@@H](c3ccccc3)N2[C@@H](c2ccc(OCCO)cc2)[C@]12C(=O)Nc1ccc(C#Cc3ccc(OC)cc3)cc12` ?
condition not met

Hi, just wondering whether `[N-]=[N+]=NCc1ccccc1C[C@]1(C(=O)N2CCCCC2)COC(c2ccc(OCCCO)cc2)=N1` shows composite z-score of 0.2 or higher.
condition not met

Please indicate if the recorded composite z-score for `C=C1C(=O)C=C2CN(C(=O)c3ccccc3)[C@@](Cc3ccc(F)cc3)(C(=O)OC)[C@@H]12` meets or exceeds 0.2.
condition met

Quick check, composite z-score >= 0.2? `C=C(CCCC)C(=O)CC[C@H](OC(=O)c1ccccc1-c1ccccc1C(=O)O)c1cccc(OCCO)c1`
condition not met

* * *

test: small-molecule binders of probe aNOTCH3, primary screen, biochemical, small-molecule microarray, 635/667 nm fluorescence (AID 1120); settings: higher = more signal;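 also: probe is a biotin-tagged antibody raised against NOTCH3 rather than NOTCH3 protein; score merges spot fluorescence near 667 nm with spot signal to noise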
Decide by composite z-score: equal to or exceeding 0.07 means t, less means f.

// known answers, use as guide
Hi, just wondering whether `COc1cc(Cc2cc3c(c(CCc4ccccc4)n2)[Si](C(C)C)(C(C)C)O[C@H]3c2ccccc2)cc(OC)c1OC` shows composite z-score of 0.07 or higher.
f

Has `COC(=O)[C@@]1(Cc2ccc(F)cc2)[C@H]2c3cc(C(=O)N4CCCC4)n(Cc4ccc(OC(F)(F)F)cc4)c3C[C@H]2CN1C(=O)c1ccccc1` a recorded composite z-score greater than or equal to 0.07?
f

Is reported composite z-score greater than or equal to 0.07 here: `[N-]=[N+]=NCc1ccccc1[C@H]1OC(c2ccc(OCCCO)cc2)=N[C@@]1(CCS(=O)(=O)c1ccccc1)C(=O)O`
t

For this molecule, is measured composite z-score 0.07 or higher? `CO[C@H]1O[C@H](CO)[C@@H](OC(=O)Nc2ccccc2)[C@@H]2OC(=O)[C@@H](Cc3ccccc3)C/C=C/C[C@H](Cc3ccccc3)C(=O)O[C@@H]12`
t

Is the recorded value of composite z-score equal to or greater than 0.07 for this molecule? COC(=O)c1ccc(OC)c(/C=C\CC(OC(=O)c2ccncc2)c2ccccc2)c1 (stereo not given)
f

Moving on to another molecule below.
Threshold query (composite z-score >= 0.07) on `COC(=O)[C@]1(Cc2ccccc2CN=[N+]=[N-])N=C(c2ccc(OCCCO)cc2)O[C@@H]1c1ccccc1N=[N+]=[N-]`
f

* * *

target: Dickkopf-related protein 1 (Homo sapiens); assay: DKK1 binders on small-molecule microarrays, primary screen, biochemical, small-molecule microarray, 635 nm fluorescence scan (AID 1106); settings: DKK1 binding, higher = more signal;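 also: score merges emission near 667 nm with signal to noise over three replicate slides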
Give measured composite z-score for each item. Keep answers brief.
One number for each entry.

// returns reported composite z-score for input `[N-]=[N+]=NCc1ccccc1[C@H]1OC(c2ccc(OCCCO)cc2)=N[C@@]1(CCS(=O)(=O)c1ccccc1)C(=O)NCCN1CCOCC1`
0.0689

Quick check: composite z-score of COc1ccc(C(O)C2C=CC3C(=O)N(C)C(=O)C3N2Nc2ccccc2)cc1 (configuration not stated) ?
0.312

Look up composite z-score for this compound: `CCCN1C(=O)[C@@]2(c3ccc([N+](=O)[O-])cc3)CC(=O)N(C3CCCCC3)[C@@H]2c2ccc(CO)cc21`
1.2

Look up composite z-score: `C=CC[C@H](O)c1ccc(O)c(F)c1`
-1.97

Which composite z-score is listed for CCCCN1CC=CC23O[C@@H]4/C=C\CCCOC(=O)C4[C@H]2C(=O)N(CCCCCCO)[C@@H]3C1=O (some centres not stated) ?
-1.75

Record composite z-score per entry; entries follow.
1. C=CCOC(=O)[C@H]1[C@@H]2C(=O)O[C@@H](c3ccccc3)[C@@H](c3ccccc3)N2[C@@H](c2ccc(OCCOC(=O)[C@H]3C[C@H]4C(=O)NCC(=O)N4[C@H]3c3ccc(O)cc3)cc2)[C@]12C(=O)Nc1ccccc12
2. COCCCNC(=O)[C@@]1(CCC(=O)OC(C)(C)C)N=C(c2ccc(OCCCO)cc2)O[C@H]1c1ccccc1

1. 0.974
2. -0.538

* * *

molecular target: Follistatin (Homo sapiens); test: follistatin binders on small-molecule microarrays, primary screen, biochemical, small-molecule microarray, 635/667 nm fluorescence (AID 1132); settings: FST binding, 635 nm fluorescence, higher = more signal
assay.readout: composite z-score
Give bare numbers.

Below, each entry is followed by its recorded composite z-score result.
What reported composite z-score corresponds to CCCCN1CC=CC23O[C@@H]4C=CCCOC(=O)C4[C@H]2C(=O)N(CCO)[C@@H]3C1=O (stereo partly drawn) on Follistatin (Homo sapiens)?
0.407

What reported composite z-score corresponds to `O=C1N(Cc2ccccc2)Cc2ccccc2C[C@@]12COC(c1ccc(OCCCO)cc1)=N2` on Follistatin (Homo sapiens)?
1.39

Which composite z-score is reported with Follistatin (Homo sapiens) for this entry: `O=C(NC1CC1)[C@@H]1c2ccccc2C(=O)N(C2CCCCC2)[C@H]1c1ccc(CO)cc1` ?
0.27

Batch of 2 molecules: report composite z-score for each.
1. O=C1C2C=CC(C(O)C(c3ccccc3)c3ccccc3)N(Nc3ccccc3F)C2C(=O)N1c1ccccc1 (stereo not drawn)
2. COc1ccc([Si](C)(C)[C@H]2[C@H](CC(=O)N(CCO)Cc3ccccc3)O[C@@]3(C(=O)N(Cc4cccc(N5CCCCC5=O)c4)c4ccccc43)[C@@H]2C)cc1

[1.2, 0.724]

# return composite z-score for each item in the list
1. CCCCC(=C=CC[C@H](O)c1cccc(OCCO)c1)C[C@H](O)c1cc(Cl)cc(Cl)c1O
2. COC(=O)[C@@]1(Cc2ccc(F)cc2)[C@H]2c3cc(C(=O)N4CCCC4)n(Cc4ccc(OC(F)(F)F)cc4)c3C[C@H]2CN1C(=O)c1ccccc1
3. COc1c(C)cc(-c2nc(-c3ccccc3)c3c(c2C)CO[Si]3(C(C)C)C(C)C)cc1C

1.11
-0.752
0.62
